Where do the numbers come from? From ChEMBL document CHEMBL1649165.

# System: [Candida] inconspicua
# METHOD DESCRIPTION: Antimicrobial activity against Candida inconspicua by broth microdilution method
# Type: functional
# MEASUREMENT CONTEXT: Pichia inconspicua
*1 amine or outer side, *2 acyl side, *3 side chain or, on linkers, in order; H or OH if unused. Where a SMILES comes first, the peptide text is derived from it. Bridges are numbered along the chain shown (N, C = ends). [ ]: non-standard residue; d: D form. The star is where a group is joined. hTyr(3S-OH,4S-OH,3'-OSO3H) = N[C@H](C(=O)O)[C@H](O)[C@@H](O)c1ccc(O)c(OS(=O)(=O)O)c1; pTerphenylCO(4''-OnC5H11) = CCCCCOc1ccc(-c2ccc(-c3ccc(C(=O)*)cc3)cc2)cc1; Orn(4R-OH,5R-OH) = O=C([C@H](C[C@@H](O)[C@@H](O)N[*:3])N[*:1])[*:2]; hTyr(3S-OH,4S-OH) = N[C@H](C(=O)O)[C@H](O)[C@@H](O)c1ccc(O)cc1; Pro(3S-OH,4S-Me) = C[C@H]1CN[C@H](C(=O)O)[C@H]1O; X1 = CCCCCOc1ccc(-c2cc(-c3ccc(C(=O)*)cc3)no2)cc1; Gln(3R-OH) = NC(=O)C[C@@H](O)[C@H](N)C(=O)O; Hyp = O=C(O)[C@@H]1C[C@@H](O)CN1
Label Condition met when MIC50 is strictly below 0.1 µg/mL; at or above that, label Condition not met.

CCCCCOc1ccc(-c2cc(-c3ccc(C(=O)N[C@H]4C[C@@H](O)[C@@H](O)NC(=O)[C@@H]5[C@@H](O)[C@@H](C)CN5C(=O)[C@H]([C@H](O)CC(N)=O)NC(=O)[C@H]([C@H](O)[C@@H](O)c5ccc(O)c(OS(=O)(=O)O)c5)NC(=O)[C@@H]5C[C@@H](O)CN5C(=O)[C@H]([C@@H](C)O)NC4=O)cc3)no2)cc1 [MICAFUNGIN] (X1-[Orn(4R-OH,5R-OH)]T[Hyp][hTyr(3S-OH,4S-OH,3'-OSO3H)][Gln(3R-OH)][Pro(3S-OH,4S-Me)]; lactam 1-C) = Condition met
OC(Cn1cncn1)(Cn1cncn1)c1ccc(F)cc1F [FLUCONAZOLE] = Condition not met
CC[C@@H]([C@H](C)O)n1ncn(-c2ccc(N3CCN(c4ccc(OC[C@@H]5CO[C@@](Cn6cncn6)(c6ccc(F)cc6F)C5)cc4)CC3)cc2)c1=O [POSACONAZOLE] = Condition met
CCCCCOc1ccc(-c2ccc(-c3ccc(C(=O)N[C@H]4C[C@@H](O)[C@@H](O)NC(=O)[C@@H]5[C@@H](O)[C@@H](C)CN5C(=O)[C@H]([C@@H](C)O)NC(=O)[C@H]([C@H](O)[C@@H](O)c5ccc(O)cc5)NC(=O)[C@@H]5C[C@@H](O)CN5C(=O)[C@H]([C@@H](C)O)NC4=O)cc3)cc2)cc1 [ANIDULAFUNGIN] ({pTerphenylCO(4''-OnC5H11)}-[Orn(4R-OH,5R-OH)]T[Hyp][hTyr(3S-OH,4S-OH)]T[Pro(3S-OH,4S-Me)]; lactam 1-C) = Condition met

Given the entry C[C@@H]1[C@H](O)[C@@H](C)/C=C/C=C/C=C/C=C/C=C/C=C/C=C/[C@H](O[C@@H]2O[C@H](C)[C@@H](O)[C@H](N)[C@@H]2O)C[C@@H]2O[C@](O)(C[C@@H](O)C[C@@H](O)[C@H](O)CC[C@@H](O)C[C@@H](O)CC(=O)O[C@H]1C)C[C@H](O)[C@H]2C(=O)O [AMPHOTERICIN B] , would its reported MIC50 be below 0.1 µg/mL? Condition not met

MIC50 strictly < 0.1 µg/mL for this compound? Nc1nc(=O)[nH]cc1F [FLUCYTOSINE] Condition not met

Input C[C@@H](c1ncncc1F)[C@](O)(Cn1cncn1)c1ccc(F)cc1F [VORICONAZOLE] ; condition: MIC50 strictly below 0.1 µg/mL. Does it hold? Condition not met

Is the reported MIC50 for CC[C@H](C)C[C@H](C)CCCCCCCCC(=O)N[C@H]1C[C@@H](O)[C@@H](NCCN)NC(=O)[C@@H]2[C@@H](O)CCN2C(=O)[C@H]([C@H](O)CCN)NC(=O)[C@H]([C@H](O)[C@@H](O)c2ccc(O)cc2)NC(=O)[C@@H]2C[C@@H](O)CN2C(=O)[C@H]([C@@H](C)O)NC1=O [CASPOFUNGIN] strictly below 0.1 µg/mL? Condition met

Lab log: compare recorded MIC50 with 0.1 µg/mL; is it strictly lower for CCC(C)n1ncn(-c2ccc(N3CCN(c4ccc(OCC5COC(Cn6cncn6)(c6ccc(Cl)cc6Cl)O5)cc4)CC3)cc2)c1=O (centres undefined) [ITRACONAZOLE] ? Condition not met
